test system: HCT-116; experiment: Antiproliferative activity against human HCT-116 cells incubated for 72 hrs by MTT assay; type: functional, cell-based; settings: HCT-116, 72 h
Each item that follows carries a reported IC50.

{"MOLECULE": "CC[C@H](Nc1ncnc2[nH]cnc12)c1nc2cccc(F)c2c(=O)n1-c1ccccc1 [IDELALISIB]", "IC50": "> 10 µM"}

Next up:
Form field: IC50 recorded for N#Cc1ccc(N2CC(CN3CCC(n4cc(-c5ccc(F)cc5)c5c(N)ncnc54)CC3)C2)cc1 with HCT-116 (enter value)
> 10 µM

---

target: Menin/Histone-lysine N-methyltransferase MLL (Homo sapiens, UniProt O00255); test: Inhibition of human menin-MLL (unknown origin) protein-protein interaction incubated for 0.5 to 4 hrs by TR-FRET assay
Sequence (O00255 whole entry): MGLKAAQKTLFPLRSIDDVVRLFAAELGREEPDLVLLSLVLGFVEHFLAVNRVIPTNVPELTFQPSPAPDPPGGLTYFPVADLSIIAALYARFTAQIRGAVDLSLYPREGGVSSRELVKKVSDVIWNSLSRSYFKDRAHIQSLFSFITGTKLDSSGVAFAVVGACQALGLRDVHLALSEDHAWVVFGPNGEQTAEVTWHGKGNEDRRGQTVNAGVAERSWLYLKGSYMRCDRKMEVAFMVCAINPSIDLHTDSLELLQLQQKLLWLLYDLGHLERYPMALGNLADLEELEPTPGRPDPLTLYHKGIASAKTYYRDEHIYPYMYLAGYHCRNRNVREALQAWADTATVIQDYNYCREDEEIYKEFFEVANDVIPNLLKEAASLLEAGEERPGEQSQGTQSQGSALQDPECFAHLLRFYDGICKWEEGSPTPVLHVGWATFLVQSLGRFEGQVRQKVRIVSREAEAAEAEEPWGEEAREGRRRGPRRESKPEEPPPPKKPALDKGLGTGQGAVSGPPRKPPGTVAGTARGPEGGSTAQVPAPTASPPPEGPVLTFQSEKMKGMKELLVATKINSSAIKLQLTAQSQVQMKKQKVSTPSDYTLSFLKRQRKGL
Sequence (Q03164 1-2718 partner limits assumed): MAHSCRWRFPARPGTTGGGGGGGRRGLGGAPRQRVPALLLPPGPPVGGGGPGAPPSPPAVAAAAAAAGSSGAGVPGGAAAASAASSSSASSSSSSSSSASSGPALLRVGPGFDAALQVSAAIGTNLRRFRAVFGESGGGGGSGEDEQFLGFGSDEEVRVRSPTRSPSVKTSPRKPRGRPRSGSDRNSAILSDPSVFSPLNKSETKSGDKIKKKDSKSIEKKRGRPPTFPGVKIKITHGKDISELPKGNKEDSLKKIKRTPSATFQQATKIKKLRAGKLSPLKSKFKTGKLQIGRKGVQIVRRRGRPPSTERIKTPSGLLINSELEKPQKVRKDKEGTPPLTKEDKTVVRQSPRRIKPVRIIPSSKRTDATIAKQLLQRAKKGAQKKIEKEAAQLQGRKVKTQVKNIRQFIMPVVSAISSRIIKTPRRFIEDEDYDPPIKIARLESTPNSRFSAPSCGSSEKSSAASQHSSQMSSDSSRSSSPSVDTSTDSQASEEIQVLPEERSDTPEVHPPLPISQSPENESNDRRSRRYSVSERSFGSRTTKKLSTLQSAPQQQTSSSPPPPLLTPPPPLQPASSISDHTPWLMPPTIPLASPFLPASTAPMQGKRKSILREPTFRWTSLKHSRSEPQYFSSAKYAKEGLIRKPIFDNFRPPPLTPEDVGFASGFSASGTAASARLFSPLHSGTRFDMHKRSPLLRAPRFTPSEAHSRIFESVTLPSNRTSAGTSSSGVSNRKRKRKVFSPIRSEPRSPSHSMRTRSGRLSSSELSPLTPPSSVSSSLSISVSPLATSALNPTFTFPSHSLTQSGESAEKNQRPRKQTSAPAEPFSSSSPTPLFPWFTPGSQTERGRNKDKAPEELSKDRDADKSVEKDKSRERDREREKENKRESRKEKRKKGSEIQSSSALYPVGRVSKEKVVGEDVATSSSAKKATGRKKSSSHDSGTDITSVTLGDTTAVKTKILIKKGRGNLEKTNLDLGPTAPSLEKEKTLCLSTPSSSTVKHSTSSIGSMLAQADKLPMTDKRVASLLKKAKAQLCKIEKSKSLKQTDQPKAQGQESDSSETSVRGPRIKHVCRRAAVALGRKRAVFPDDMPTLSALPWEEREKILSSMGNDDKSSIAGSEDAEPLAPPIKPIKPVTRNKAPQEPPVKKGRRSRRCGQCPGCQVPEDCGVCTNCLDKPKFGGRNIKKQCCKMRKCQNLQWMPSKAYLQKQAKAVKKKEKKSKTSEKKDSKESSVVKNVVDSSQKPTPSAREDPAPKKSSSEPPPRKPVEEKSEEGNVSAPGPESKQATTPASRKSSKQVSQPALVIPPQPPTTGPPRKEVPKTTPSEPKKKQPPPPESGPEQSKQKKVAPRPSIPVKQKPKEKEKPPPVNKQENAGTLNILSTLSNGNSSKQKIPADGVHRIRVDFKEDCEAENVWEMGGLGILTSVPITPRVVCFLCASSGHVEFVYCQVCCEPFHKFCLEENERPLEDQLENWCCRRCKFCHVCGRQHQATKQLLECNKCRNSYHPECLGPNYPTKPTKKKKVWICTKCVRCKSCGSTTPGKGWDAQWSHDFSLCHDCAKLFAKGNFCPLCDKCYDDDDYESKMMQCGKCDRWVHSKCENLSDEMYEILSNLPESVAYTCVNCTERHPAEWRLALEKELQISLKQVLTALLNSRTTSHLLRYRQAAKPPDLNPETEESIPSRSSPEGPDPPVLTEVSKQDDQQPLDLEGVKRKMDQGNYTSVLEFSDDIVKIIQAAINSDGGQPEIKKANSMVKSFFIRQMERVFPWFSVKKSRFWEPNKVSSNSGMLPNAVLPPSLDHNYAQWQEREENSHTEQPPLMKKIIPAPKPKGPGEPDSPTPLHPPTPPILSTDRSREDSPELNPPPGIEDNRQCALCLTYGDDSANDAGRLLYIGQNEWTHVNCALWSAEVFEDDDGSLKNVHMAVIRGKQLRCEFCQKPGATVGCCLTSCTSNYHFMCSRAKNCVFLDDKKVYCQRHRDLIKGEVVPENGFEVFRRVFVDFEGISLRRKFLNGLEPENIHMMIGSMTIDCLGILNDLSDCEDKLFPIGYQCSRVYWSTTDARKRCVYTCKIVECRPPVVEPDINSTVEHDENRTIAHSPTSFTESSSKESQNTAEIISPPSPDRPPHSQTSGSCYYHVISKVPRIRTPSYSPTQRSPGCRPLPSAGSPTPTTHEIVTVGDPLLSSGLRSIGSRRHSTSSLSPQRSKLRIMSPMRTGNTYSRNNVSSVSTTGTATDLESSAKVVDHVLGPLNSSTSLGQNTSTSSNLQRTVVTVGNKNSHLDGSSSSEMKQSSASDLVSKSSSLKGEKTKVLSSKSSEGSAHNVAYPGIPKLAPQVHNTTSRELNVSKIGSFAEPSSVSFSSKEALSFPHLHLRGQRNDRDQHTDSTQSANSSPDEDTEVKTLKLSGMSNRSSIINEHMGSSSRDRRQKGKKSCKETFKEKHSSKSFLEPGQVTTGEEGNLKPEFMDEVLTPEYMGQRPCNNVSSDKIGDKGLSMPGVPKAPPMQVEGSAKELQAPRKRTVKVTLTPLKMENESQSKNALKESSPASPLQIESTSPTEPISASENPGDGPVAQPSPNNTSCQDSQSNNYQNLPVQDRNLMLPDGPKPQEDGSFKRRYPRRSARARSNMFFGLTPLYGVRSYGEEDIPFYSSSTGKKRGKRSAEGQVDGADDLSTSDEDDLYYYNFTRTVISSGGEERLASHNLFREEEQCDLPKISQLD
Sequence (Q03164 2719-3969 partner limits assumed): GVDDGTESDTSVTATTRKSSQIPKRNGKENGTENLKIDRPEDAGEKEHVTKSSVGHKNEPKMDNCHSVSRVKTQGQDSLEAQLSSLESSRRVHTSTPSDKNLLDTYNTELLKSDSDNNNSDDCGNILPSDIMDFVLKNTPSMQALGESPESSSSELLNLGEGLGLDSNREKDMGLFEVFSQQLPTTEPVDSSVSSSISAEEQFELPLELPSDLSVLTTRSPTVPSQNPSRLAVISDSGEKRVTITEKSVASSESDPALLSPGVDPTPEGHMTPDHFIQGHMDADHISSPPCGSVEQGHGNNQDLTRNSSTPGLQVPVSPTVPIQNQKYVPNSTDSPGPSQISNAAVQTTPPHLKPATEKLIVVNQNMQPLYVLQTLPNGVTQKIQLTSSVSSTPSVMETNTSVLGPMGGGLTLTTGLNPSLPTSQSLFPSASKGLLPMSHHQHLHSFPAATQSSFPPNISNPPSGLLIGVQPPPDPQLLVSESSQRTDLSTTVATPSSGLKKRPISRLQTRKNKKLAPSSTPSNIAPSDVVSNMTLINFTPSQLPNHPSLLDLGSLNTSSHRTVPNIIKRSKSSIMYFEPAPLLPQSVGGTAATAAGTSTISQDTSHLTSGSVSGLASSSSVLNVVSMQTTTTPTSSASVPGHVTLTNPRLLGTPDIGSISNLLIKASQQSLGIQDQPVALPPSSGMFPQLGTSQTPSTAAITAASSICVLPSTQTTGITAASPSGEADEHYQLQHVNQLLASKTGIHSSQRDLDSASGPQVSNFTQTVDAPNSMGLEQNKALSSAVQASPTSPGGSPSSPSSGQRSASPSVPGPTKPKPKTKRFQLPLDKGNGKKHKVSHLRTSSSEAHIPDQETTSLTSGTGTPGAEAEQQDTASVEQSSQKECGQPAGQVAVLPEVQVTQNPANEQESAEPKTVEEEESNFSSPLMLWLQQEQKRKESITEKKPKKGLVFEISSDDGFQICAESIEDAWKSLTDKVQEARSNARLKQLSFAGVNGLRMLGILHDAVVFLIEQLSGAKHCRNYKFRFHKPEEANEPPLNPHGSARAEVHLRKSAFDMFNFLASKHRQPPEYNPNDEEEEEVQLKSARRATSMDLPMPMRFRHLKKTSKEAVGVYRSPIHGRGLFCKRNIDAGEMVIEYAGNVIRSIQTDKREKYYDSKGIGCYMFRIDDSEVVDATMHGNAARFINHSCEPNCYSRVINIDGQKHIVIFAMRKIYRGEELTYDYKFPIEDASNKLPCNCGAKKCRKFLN
PROPERTY: pIC50
Here pIC50 is given on a logarithmic scale as minus log10 of the concentration in mol/L.

Quick one: pIC50 of Cc1c(CN2CCC3(CC2)CN(c2ncnc4sc(CC(F)(F)F)cc24)C3)ccc2c1cc(C#N)n2CC(N)=O ?
8.10

---

molecular target: Menin/Histone-lysine N-methyltransferase MLL (Homo sapiens); experiment: Inhibition of human menin-MLL (unknown origin) protein-protein interaction by fluorescence polarization assay
PROPERTY: IC50 (nM)
Record the value in nM, omitting the unit from your answer.

Quick one: IC50 of CNc1nc(NC2CCN(Cc3ccc4c(cc(C#N)n4CC45CC(NC=O)(C4)C5)c3C)CC2)c2cc(CC(F)(F)F)sc2n1 ?
0.51

---

target: Voltage-gated inwardly rectifying potassium channel KCNH2 (Homo sapiens, UniProt Q12809); experiment: Inhibition of human ERG expressed in CHO cells by Q-patch clamp assay
pIC50: −log10 of the molar value.
PROPERTY: pIC50

What value of pIC50 has been reported for the following molecule? CC(C)N(C)C(=O)c1cc(F)ccc1-n1cc(C2CCN(C(=O)[C@H]3NC4CCC3CC4)CC2)c2ccncc21
< 4.00

Reference source for all entries: ChEMBL document CHEMBL5505977
